Target: T1, BSA (bovine, UniProt P02769)
T1 construct: also called bovine serum albumin
T1 sequence (P02769 25-607 limits assumed): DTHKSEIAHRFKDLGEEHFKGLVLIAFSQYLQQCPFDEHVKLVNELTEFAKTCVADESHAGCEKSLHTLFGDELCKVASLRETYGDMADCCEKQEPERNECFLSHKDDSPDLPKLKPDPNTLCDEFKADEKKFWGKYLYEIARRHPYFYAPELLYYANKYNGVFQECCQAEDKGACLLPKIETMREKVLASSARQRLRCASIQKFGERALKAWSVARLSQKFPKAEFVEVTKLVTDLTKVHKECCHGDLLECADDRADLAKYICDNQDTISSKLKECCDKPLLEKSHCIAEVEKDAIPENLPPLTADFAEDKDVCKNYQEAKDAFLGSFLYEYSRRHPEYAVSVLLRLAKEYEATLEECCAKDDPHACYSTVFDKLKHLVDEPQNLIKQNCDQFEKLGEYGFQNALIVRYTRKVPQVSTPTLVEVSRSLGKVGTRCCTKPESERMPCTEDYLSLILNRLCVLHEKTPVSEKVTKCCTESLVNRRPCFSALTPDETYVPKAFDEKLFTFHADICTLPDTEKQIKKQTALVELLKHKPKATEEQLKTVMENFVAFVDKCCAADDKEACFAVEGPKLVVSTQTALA
Experiment: direct phage ELISA, proteins coated at 2 µg/ml, phage-Fab supernatant, OD450;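 further: specificity test of dual-activity clones, with binding assessed across an antigen panel to check whether each recognises only its cognate target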
measured metric: binding result

Quick note, binding result for D1.5-122 (phage-displayed Fab clone) (Fab, V domains shown, EGFR/HER3 clone) VH: EVQLVESGGGLVQPGGSLRLSCAASGFTFTGNWIHWVRQAPGKGLEWVGEISPSGGYTDYADSVKGRFTISADTSKNTAYLQMNSLRAEDTAVYYCARESRVSYEAAMDYWGQGTLVTVSS VL: DIQMTQSPSSLSASVGDRVTITCRASQNIASDVAWYQQKPGKAPKLLIYSASSLYSGVPSRFSGSGSGTDFTLTISSLQPEDFATYYCQQSDPEPYTFGQGTKVEIKR landed at no binding

Quick note, binding result for D1.5-103 (phage-displayed Fab clone) (Fab, V domains shown, EGFR/HER3 clone) VH: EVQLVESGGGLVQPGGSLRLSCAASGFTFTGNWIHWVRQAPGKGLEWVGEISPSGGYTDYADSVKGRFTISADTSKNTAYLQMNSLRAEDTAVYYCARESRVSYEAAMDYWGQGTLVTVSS VL: DIQMTQSPSSLSASVGDRVTITCRASQALGDSENGYADVAWYQQKPGKAPKLLIYEGSSLYSGVPSRFSGSGSGTDFTLTISSLQPEDFATYYCQQAAPSPYTFGQGTKVEIKR landed at no binding
